From: ChEMBL document CHEMBL1201862

# Tested on: CCRF-CEM
# TEST NAME: NCI tumour cell line growth inhibition, 48 h
The source made the active and inactive calls. Rule as the data show it: active = GI50 up to about 1.1 µM and inactive = higher.
Classes used: 1 for active, -1 for inactive

- C=C1C(=O)O[C@@H]2C=C(C)C3=CC(=O)[C@](C)(C[C@H](OC(=O)/C(C)=C\C)[C@@H]12)O3: 1
- CCSC1(SCC)CC(Cc2ccc(OC)cc2)N(/C=N/C(C)(C)C)C1 (stereo unspecified): -1
- CN1CCc2c1nc(-c1cccnc1)c1c2N(C)CC1: -1
- Nc1ccn(C2OC(C(OC3OC(CO)C(O)C(N)C3O)C(O)C(O)C(O)C(O)CO)C(N)C(O)C2O)c(=O)n1 (stereo unspecified): -1
- O=C(CC(=O)N1N=C(n2ccc3ccccc32)CC1c1ccccc1)Nc1cccc(Cl)c1 (stereo unspecified): -1
- CCOC(=O)N1CCN(C(=O)Nc2cccc3ccccc23)CC1: -1

###

# Test system: SK-OV-3
# TEST NAME: NCI tumour cell line growth inhibition, 48 h
Activity calls are given as the source filed them. Rule as the data show it: active = GI50 up to about 1.1 µM and inactive = higher.
Classes used: yes for active, no for inactive

- CC(=O)NC1C(OCc2ccccc2)OC(CO)C(O)C1OC(C)C(=O)NC(C)C(=O)NC(CCC(=O)NCCCNc1c2ccccc2nc2cccc([N+](=O)[O-])c12)C(N)=O (stereo not given): no
- Cc1cccc(N2C(=O)C(Cl)=C(Cl)C2=O)c1: no
- COc1ccc(N2C(=O)C3c4[nH]c5ccccc5c4C4CC(C)CC(C)C4C3C2=O)cc1 (stereo not given): no
- OCC1OC(c2scc3c(=S)[nH]cnc23)C(O)C1O (stereo not given): no
- COc1ccc(/C=N/c2nc3cc4sc(/N=C/c5ccc(OC)cc5)nc4cc3s2)cc1: no
- COc1cccc(C(=O)O[C@H]2[C@@H]3[C@]4(OC(C)=O)CO[C@@H]4C[C@H](O)[C@@]3(C)C(=O)[C@H](OC(C)=O)C3=C(C)[C@@H](OC(=O)[C@H](O)[C@@H](NC(=O)OC(C)(C)C)c4ccco4)C[C@]2(O)C3(C)C)c1: yes
- CCN1/C(=C/C#C/C(C)=C\c2sc3ccccc3[n+]2CC)Sc2ccccc21: no
- Oc1ccc2ccccc2c1/C=C/c1ccc2c(Br)cc(Br)c(O)c2n1: no
- CC(=O)OCC1OC(OC(C)=O)C(NC#N)C(OC(C)=O)C1OC(C)=O (stereo not given): no
- O=C1c2ccccc2C(=O)c2c(NCCNC(=O)C3CCCN3)ccc(NCCNC(=O)C3CCCN3)c21 (stereo not given): no
- Cn1c(-c2cccs2)cc(-c2ccsc2)c1-c1cccs1: no
- CCOC(=O)C1(C(=O)OCC)CSC1: no
- Cn1c(S)nc(C(N)=O)c1N: no
- CC1(C)OCN(c2ccc(Cl)cc2)Cn2c1nc1ccccc12: no
- CC1[C@@]2(CCC(C)(C)O2)O[C@@H]2C=C3C4CCC5Cc6nc7c(nc6C[C@@]5(C)C4C[C@H](O)[C@@]3(C)[C@]12O)CC1CCC2C3=C[C@H]4O[C@@]5(O[C@@](C)(CO)C[C@@H]5O)C(C)[C@@]4(O)[C@]3(C)[C@@H](O)CC2[C@]1(C)C7 (stereo not given in full): yes

###

Recorded GI50 for the following compounds
# System: SNB-19
# TEST NAME: NCI tumour cell line growth inhibition, 48 h
Calls of active or inactive are those of the source. Rule as the data show it: active = GI50 up to about 1.1 µM and inactive = higher.
QUANTITY: GI50

- Cc1nc(N)c(N2CCN(Cc3ccccc3)CC2)c(O)n1: > 100 µM (inactive)
- COc1cc(C2c3cc4c(cc3OC(NN=C(C)C)C2C)OCO4)cc(OC)c1O (centres undefined): 85.5 µM (inactive)
- Nc1ccn(C2OC(C(OC3OC(CO)C(O)C(N)C3O)C(O)C(O)C(O)C(O)CO)C(N)C(O)C2O)c(=O)n1 (centres undefined): 47.3 µM (inactive)
- C/C=C1\CN2CCc3c([nH]c4ccccc34)C2CC1CCO (centres undefined): > 100 µM (inactive)
- Cc1c2c(nc3ccccc13)C(=O)c1cccnc1C2=O: 16.3 µM (inactive)
- CNC(=O)SCC(NC(=O)CCC(N)C(=O)O)C(=O)NCC(=O)O (centres undefined): > 100 µM (inactive)
- CC1(C)OCN(c2ccc(Cl)cc2)Cn2c1nc1ccccc12: > 71.3 µM (inactive)
- O=c1[nH]/c(=C/c2ccc(OCc3ccccc3)cn2)c(=O)[nH]/c1=C/c1ccc([N+](=O)[O-])cc1: > 64.7 µM (inactive)
- O=C1c2ccccc2C(=O)N1CC(CN1C(=O)c2ccccc2C1=O)(C(=O)OCc1ccccc1)C(=O)OCc1ccccc1: > 100 µM (inactive)

###

# Tested on: OVCAR-8
# TEST NAME: NCI tumour cell line growth inhibition, 48 h
Calls of active or inactive are those of the source. Rule as the data show it: active = GI50 up to about 1.1 µM and inactive = higher.
Recorded GI50 for the following compounds
QUANTITY: GI50

- C/C(=N\NC(=O)c1cccnc1)c1cccc(/C(C)=N/NC(=O)c2cccnc2)n1.CC(=O)[O-].CC(=O)[O-].[Zn+2]: 1.62 µM (inactive)
- NC(=O)NNc1nc2ccccc2c(=O)n1NC(=O)C(=O)Nc1ccc(Cl)cc1Cl: > 100 µM (inactive)
- COC(=O)C(Cc1c[nH]c2ccccc12)NP(=O)(O)OCC1OC(n2cc(I)c(=O)[nH]c2=O)CC1O (centres undefined): > 100 µM (inactive)
- Oc1c(C2=N[C@H]3CCCC[C@@H]3N2)ccc2ccccc12: > 100 µM (inactive)
- Oc1cccc(-c2nc3cc(F)ccc3s2)c1: 20.6 µM (inactive)
- CC(C)C1CCC(=O)CC1CCCCC1CC(=O)CC1O[Si](C)(C)C(C)(C)C (centres undefined): 3.83 µM (inactive)
- CC(C)(C)[C@H]1CO[C@]2(C)[C@@H]3C[C@@H]3C(=O)N12: > 100 µM (inactive)
- O=C1c2ccccc2C(=O)c2c(NCCNC(=O)C3CCCN3)ccc(NCCNC(=O)C3CCCN3)c21 (centres undefined): 33.9 µM (inactive)
- CC(=O)OCC1OC(OC(C)=O)C(NC#N)C(OC(C)=O)C1OC(C)=O (centres undefined): > 100 µM (inactive)
- NC(=O)Nc1c([N+](=O)[O-])cc(C(F)(F)F)cc1[N+](=O)[O-]: 57.5 µM (inactive)
- CSc1ccc(NC(=O)C2CCCCC2C(=O)O)cc1 (centres undefined): > 100 µM (inactive)
- CNC(=S)N/N=C1\CC(c2ccccc2)Oc2ccccc21 (centres undefined): > 100 µM (inactive)
- CC[P+]1(c2ccccc2)CCCCC1: > 100 µM (inactive)
- CN(C)CCN(C)C(=O)C1CCCN1C(=O)OCc1ccccc1 (centres undefined): > 100 µM (inactive)

###

# System: EKVX
# TEST NAME: NCI tumour cell line growth inhibition, 48 h
The source made the active and inactive calls. No stated cut-off is given here; in the data, active = GI50 up to about 1.1 µM and inactive = higher.
QUANTITY: GI50

- CC1=NN(c2cc(Cl)c(S(=O)(=O)O)cc2Cl)C2(C1)C(Cl)C(=O)N2c1nc2ccccc2s1 (stereo unspecified): 44.9 µM (inactive)
- Cc1c2c3ccccc3nc-2n(C)c2ccccc12: 2.43 µM (inactive)
- O=C(O)CCC(=O)OC1N=C(c2ccccc2Cl)c2cc([N+](=O)[O-])ccc2NC1=O (stereo unspecified): > 100 µM (inactive)
- O=c1c(C(c2cnc3ccccc3c2)c2c(O)oc3ccccc3c2=O)c(O)oc2ccccc12: 99.3 µM (inactive)
- Nc1ccn(C2OC(C(OC3OC(CO)C(O)C(N)C3O)C(O)C(O)C(O)C(O)CO)C(N)C(O)C2O)c(=O)n1 (stereo unspecified): > 100 µM (inactive)
- COc1nc(C#CC2(O)CCCCC2)nc(OC)n1: 18.1 µM (inactive)
- C=CCC(CNC(=O)OCc1ccccc1)O[Si](C)(C)C(C)(C)C (stereo unspecified): 25.4 µM (inactive)
- OCC1OC(c2scc3c(=S)[nH]cnc23)C(O)C1O (stereo unspecified): 76.2 µM (inactive)
- C=C(C)C1CC=C(C)CC1 (stereo unspecified): 1030 µM (inactive)
- O=C1Nc2ccc([N+](=O)[O-])cc2/C1=N/NC(=S)Nc1ccccc1: 1.21 µM (inactive)
- CC(C)=Cc1cc2c(cc1O)CCC1C2CC[C@@]2(C)C1CC[C@@H]2O (stereo partly specified): 15.6 µM (inactive)
- O=C(CC(C(=O)c1ccsc1)c1ccccc1)c1cccs1 (stereo unspecified): > 100 µM (inactive)
- CCCCCCCCCCCCCCCCOC(=O)C(C(=O)OCCCCCCCCCCCCCCCC)[N+](C)(C)CCOC(C)=O: 21 µM (inactive)
- NC(=O)Nc1c([N+](=O)[O-])cc(C(F)(F)F)cc1[N+](=O)[O-]: > 100 µM (inactive)
- COc1ccccc1/C=C\c1cc(OC)c(OC)c(OC)c1: 15.2 µM (inactive)
- O=C1CCCCC1C(O)(C(F)(F)F)C(F)(F)Cl (stereo unspecified): > 10 µM (inactive)
- CCOC(=O)C1=C(Nc2cccc3ccccc23)OC/C1=N\NC(=O)c1ccccc1O: 21.3 µM (inactive)
- CC(C)CNC(=O)O: > 100 µM (inactive)
- O=C(O)C1OC1C(=O)O (stereo unspecified): > 100 µM (inactive)
- Cn1cnc([N+](=O)[O-])c1Sc1ccccn1: > 100 µM (inactive)
- COc1ccc(-n2c(N)c(C#N)c(C#N)c2-c2ccco2)cc1: 5.01 µM (inactive)
- COC(=O)C1CC23C4=C(CCC41)CCC1CN4CC(C)C(CC(OC(C)=O)C12COC(C)=O)C43O (stereo unspecified): > 100 µM (inactive)
- C[C@]12CCC(=O)C=C1CC[C@@H]1C2CC[C@]2(C)Nc3c(ncn3-c3ccc(F)cc3)CC12 (stereo partly specified): 27.3 µM (inactive)
- CCOC(=O)C1c2[nH]c3ccccc3c2CCN1C(=O)c1ccco1 (stereo unspecified): > 10 µM (inactive)
- CN(C)CC1CCC/C(=C\c2ccc(N(C)C)cc2)C1=O (stereo unspecified): 16.7 µM (inactive)
- c1ccc(C(C2=Nc3cccc4cccc(c34)N2)c2ccccc2)cc1: 30.3 µM (inactive)
